B1: CPEB3 Ribozyme (parent)
chain: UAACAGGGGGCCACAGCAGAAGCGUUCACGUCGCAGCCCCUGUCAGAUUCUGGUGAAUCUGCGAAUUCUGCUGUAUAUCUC

Variants of: B1
assay-method-text: self-cleavage, relative activity (ratio to wild type); higher = more cleavage; in vitro, sequencing
Please use y whenever self-cleavage is not below 0.4, and n whenever it is.

{"columns": ["sequence", "group-label"],
 "data": [
  ["UAACAGGGGGCCACAGCAGAAGCUUUCACGUCGCAGCCCCAGUCAGAUUCUGGUGAAUCUGCGAAUUCUGCUGUAUAUCUC [G24U U41A]", "n"],
  ["UAACAGGGGGCCACAGCAUAAGCGUUCACGUCGCAGCCCCUGUCAGAUUCUGGUGAAUCUGCGAAUUCUGCUGUAUAUCUU [G19U C81U]", "n"],
  ["UAACAGGGGGCCACAGCAGAAGCGUUCACGUCGCAGUCCCUGUCAGAUACUGGUGAAUCUGCGAAUUCUGCUGUAUAUCUC [C37U U49A]", "n"],
  ["UAACAGGGGGCCACAGCAGAAGCGUUCACGUCGCACCACCUGUCAGAUUCUGGUGAAUCUGCGAAUUCUGCUGUAUAUCUC [G36C C38A]", "n"],
  ["UAACAGGGGGCCACAGCCGAAGCGUUCACGUCGCAGCCCCUGUCAGAUUCUGGUGAAUCUGCGAAUUCUGCGGUAUAUCUC [A18C U72G]", "n"],
  ["UAACAGGGGGCCACAGCAGAAGCGUUCACGUCGAAGCCCCUGUCAGAUUCUGGUGAGUCUGCGAAUUCUGCUGUAUAUCUC [C34A A57G]", "n"],
  ["UAACAGGGGGCCACAGCAGAAGCGUUCACGUCGGAGCCCCUGUCAGAUUCUGGUGGAUCUGCGAAUUCUGCUGUAUAUCUC [C34G A56G]", "n"],
  ["UAACAGGGGGCCACAGCAGGAGCGUUCACGUCGCAGCCCCUGUCAGAUUCUGGUGAAUCUGCGAAUUCUGCUGUAUAUCUG [A20G C81G]", "y"],
  ["UAACAGGGGGCCACAGCAGAAGCGUUCACGUCGCAGCCCCCGUCAGAUUCUGGUGAAUCUGCGAAUUCUGCUGUAUAUUUC [U41C C79U]", "y"],
  ["UAACAGGGGGCCACAGCAGAAGCGAUCACGUCGCAGCCCCUGUCAGAUUCUGGUGAAACUGCGAAUUCUGCUGUAUAUCUC [U25A U58A]", "n"],
  ["UAACAGGGGACCACAGCAGAAGCGUUCACGUCGCAGCCCCUGUCAGAUUCUGGUGAACCUGCGAAUUCUGCUGUAUAUCUC [G10A U58C]", "n"],
  ["UAACAGGGGGCCACAGCAGAAGCGUUCAAGUCGCAGCCCCUGUCAGAUUCUGGUGAAUCUGCGAAUUCUGCUGUGUAUCUC [C29A A75G]", "n"],
  ["UAACAGGGGGCCACAGCAGAAGCGUUCACGUCGCAGCCCCUGUCAGAUUCGGGUGCAUCUGCGAAUUCUGCUGUAUAUCUC [U51G A56C]", "y"],
  ["UAACAGGGGGCCACAGCAGAAGCGUUCACGUCGCAGCCCCUGUCAGAUUCUGGUGAAACUGCGAAUUCUGCUGUAUUUCUC [U58A A77U]", "y"],
  ["UAACAGGGGGCCUCAGCAGAAGCGUUCACGUCGCAGCCCCUGUCAGAUUCUGGUGAAUCUGCGAAUUCUGCCGUAUAUCUC [A13U U72C]", "y"],
  ["UAACAGGGGGCCACAGCAGAAGCGUUCACGUCGGAGCCCCUGUCAGAUUCUGGUGAAUCUGCGAACUCUGCUGUAUAUCUC [C34G U66C]", "n"],
  ["UAACAGGGGGCCACAGCAGAAGCGUUCUCGUCGCAGCCCCUGUCAGAUUCUGGUGAAACUGCGAAUUCUGCUGUAUAUCUC [A28U U58A]", "n"],
  ["UAACAGGGGGCCACAGCAGAAGCGUUCACGUCGCAGCACCUGUCAGAUUCUGGUGAAUCUGCGAAUUCUGCGGUAUAUCUC [C38A U72G]", "n"],
  ["UAACAGGGGGCCACAGCAGAAGCGUUCACGUCGCAGCCCCUGUCAGGUUCUGGUGAAUCUGCGAAUUCAGCUGUAUAUCUC [A47G U69A]", "y"],
  ["UAACAGGGGGCCACAGCAGAAGCGUUCACGUCGCAGCCCCAGUCAGAUUCUGGCGAAUCUGCGAAUUCUGCUGUAUAUCUC [U41A U54C]", "n"],
  ["UAACAGGGGGCCACAGCAGAAGCGCCCACGUCGCAGCCCCUGUCAGAUUCUGGUGAAUCUGCGAAUUCUGCUGUAUAUCUC [U25C U26C]", "n"],
  ["UAGCAGGGGGCCACAGCAGAAGCGUUCACGUCGCAGCCCCUGUCAGAUUCUGGUGAUUCUGCGAAUUCUGCUGUAUAUCUC [A3G A57U]", "y"]
]}

Hey, just so you know, these numbers are from the RNAGym collection of RNA variant scans (doi:10.1093/nar/gkz1192).
